# Tested on: NCI-H358 (ATCC-CRL5807) cells
# ASSAY_COMMENT: Cell viability assay, G12C (NCI-H358)
# Assay type: cell-based, human
# SETTINGS: Homo sapiens; KRAS cell viability, NCI-H358, 72 hrs, Cell Counting Kit-8
Overview of recorded IC50 for various compounds

Some compounds with known IC50 results, for comparison:
Task: What IC50 value was documented for this compound, CCn1c(-c2cc(N3CCN(CC(F)(F)F)CC3)cnc2[C@H](C)OC)c2c3cc(c(F)cc31)-c1csc(n1)C[C@H](NC(=O)[C@H](C(C)C)N1CCC3(CCN(C(=O)[C@H](F)Cl)CC3)C1=O)C(=O)N1CCC[C@H](N1)C(=O)OCC(C)(C)C2 (atropisomer, axis not shown; (M)) ?
Output: < 1 nM

Task: Okay, and CO[C@@H](C)c1ncc(N2CCN(CC(F)(F)F)CC2)cc1-c1c2c3cc(c(F)cc3n1CC(F)(F)F)-c1csc(n1)C[C@H](NC(=O)[C@H](C(C)C)N1CC[C@]3(CCN(C(=O)[C@H](F)Cl)C3)C1=O)C(=O)N1CCC[C@H](N1)C(=O)OCC(C)(C)C2 (atropisomer, axis not shown; (M)) ?
Output: < 1 nM

Okay, now this compound:
Task: Which IC50 value belongs to CCn1c(-c2cc(N3CCN(CC(F)(F)F)CC3)cnc2[C@H](C)OC)c2c3cc(c(F)cc31)-c1csc(n1)C[C@H](NC(=O)[C@H](C(C)C)N(C)C(=O)[C@H]1CCN(C(=O)[C@H](F)Cl)C1)C(=O)N1CCC[C@H](N1)C(=O)OCC(C)(C)C2 (atropisomer, axis not shown; (M)) ?
Output: < 1 nM
